tested on: Rattus norvegicus; assay: Compound was tested for urinary volume excretion in conscious rat at the dose of 1.0 mg/kg expressed as urinary excretion in treated rats/urinary excretion in control rats; format: ADME, organism-based, Urine; parameters: dose 1 mg/kg; conditions: in vivo
QUANTITY KIND: Urinary volume

Before answering, review these 5 worked examples.
Cn1c(-c2ccccc2)c(Cl)c(=O)[nH]c1=O: 0.9
Cn1c(N)nc(-c2ccccc2)c(Br)c1=O: 0.9
Oc1nc(O)c(Br)c(-c2ccccc2)n1: 1
Nc1nc(=O)c(Br)c(-c2ccccc2)[nH]1: 1.2
NS(=O)(=O)c1cc(C(=O)O)c(NCc2ccco2)cc1Cl [FUROSEMIDE]: 1.2

I. NS(=O)(=O)c1cc2c(cc1Cl)NCNS2(=O)=O [HYDROCHLOROTHIAZIDE]
II. Cn1c(N)nc(-c2ccccc2)c(I)c1=O
# query: argmin of Urinary volume over I and II Could you answer with the label of the item you picked?
II

###

system: Rattus norvegicus; experiment: Compound was tested for urinary volume excretion in conscious rat at the dose of 100 mg/kg expressed as urinary excretion in treated rats/urinary excretion in control rats; format: ADME, organism-based, Urine; set-up: dose 100 mg/kg; details: in vivo
QUANTITY KIND: Urinary volume

Before answering, review these 5 worked examples.
Nc1nc(=O)c(Br)c(-c2ccccc2)[nH]1: 2.7
Cn1c(N)nc(-c2ccccc2)c(Br)c1=O: 2.8
Cn1c(-c2ccccc2)c(Cl)c(=O)[nH]c1=O: 1.6
Cn1c(N)nc(-c2ccccc2)c(I)c1=O: 2
Oc1nc(O)c(Br)c(-c2ccccc2)n1: 2.1

A. NS(=O)(=O)c1cc2c(cc1Cl)NCNS2(=O)=O [HYDROCHLOROTHIAZIDE]
B. NS(=O)(=O)c1cc(C(=O)O)c(NCc2ccco2)cc1Cl [FUROSEMIDE]
Which is greater in Urinary volume, the first item A or the second item B ? Could you answer with the label of the item you picked?
B
(B: 7.2, A: 2.7)

###

assay: Sodium salt excretion in conscious rat at the dose of 100 mg/kg expressed as urinary excretion in treated rats/urinary excretion in control rats; format: ADME, organism-based, Urine; parameters: dose 100 mg/kg; conditions: in vivo
QUANTITY KIND: Na+ excretion

Before answering, review these 5 worked examples.
NS(=O)(=O)c1cc2c(cc1Cl)NCNS2(=O)=O [HYDROCHLOROTHIAZIDE]: 2.5
Cn1c(-c2ccccc2)c(Cl)c(=O)[nH]c1=O: 1.6
Nc1nc(=O)c(Br)c(-c2ccccc2)[nH]1 [BROPIRIMINE]: 2.8
Cn1c(N)nc(-c2ccccc2)c(I)c1=O: 2.7
Cn1c(N)nc(-c2ccccc2)c(Br)c1=O: 2.8

P. Oc1nc(O)c(Br)c(-c2ccccc2)n1
Q. NS(=O)(=O)c1cc(C(=O)O)c(NCc2ccco2)cc1Cl [FUROSEMIDE]
Which is greater in Na+ excretion, the first item P or the second item Q ? Could you answer with the label of the item you picked?
Q

###

tested on: Rattus norvegicus; assay: Compound was tested for urinary volume excretion in conscious rat at the dose of 3.0 mg/kg expressed as urinary excretion in treated rats/urinary excretion in control rats; type: ADME, organism-based, Urine; set-up: dose 3 mg/kg; details: in vivo
QUANTITY KIND: Urinary volume

Before answering, review these 5 worked examples.
Cn1c(N)nc(-c2ccccc2)c(Br)c1=O: 1.4
Nc1nc(=O)c(Br)c(-c2ccccc2)[nH]1: 1.3
NS(=O)(=O)c1cc(C(=O)O)c(NCc2ccco2)cc1Cl [FUROSEMIDE]: 1.3
Cn1c(-c2ccccc2)c(Cl)c(=O)[nH]c1=O: 0.8
NS(=O)(=O)c1cc2c(cc1Cl)NCNS2(=O)=O [HYDROCHLOROTHIAZIDE]: 2.2

P. Oc1nc(O)c(Br)c(-c2ccccc2)n1
Q. Cn1c(N)nc(-c2ccccc2)c(I)c1=O
# query: argmin of Urinary volume over P and Q Could you answer with the label of the item you picked?
P
(P: 1.1, Q: 1.6)

###

assay: Sodium salt excretion in conscious rat at the dose of 1.0 mg/kg expressed as urinary excretion in treated rats/urinary excretion in control rats; type: ADME, organism-based, Urine; set-up: dose 1 mg/kg; settings: in vivo
QUANTITY KIND: Na+ excretion

Cn1c(N)nc(-c2ccccc2)c(I)c1=O: 1.2
Oc1nc(O)c(Br)c(-c2ccccc2)n1: 1.2
Cn1c(N)nc(-c2ccccc2)c(Br)c1=O: 1.2
Cn1c(-c2ccccc2)c(Cl)c(=O)[nH]c1=O: 1.1
